tested on: Plasmodium falciparum; assay: Screen against P. falciparum Asexual Blood Stage (ABS), at 5uM; type: functional, Dd2; conditions: tested at 5 uM
The campaign covered roughly 65,000 compounds. About 2,100 (3.2%) showed an effect of 50% or more. The median lay at about -52%. Only a selection was taken, and strong results are over-represented in it overall.
Listing of entries alongside the reported INHIBITION.
Please give a number only; it is taken to be in %.

Look over these answered cases.
CC(=O)c1cccc(OCCCC(=O)NCC2CCCN2C)c1 (centres undefined)    3.79
O=C(CCc1ccccc1)NCC1CCN(Cc2cccs2)CC1    -7.73
O=C1Nc2ccccc2C1C1CCN(C(=O)C2CC2)CC1 (centres undefined)    -87.8
c1csc(-c2noc(CNCCn3cccn3)n2)c1    -114
CC(C)CC(C)NCc1cccnc1N1CCOCC1 (centres undefined)    60.8
O=C1CO[C@@H]2CN(S(=O)(=O)c3ccccc3F)C[C@H]2N1    -30.8
COc1ccc(C2(C(=O)NC3CCc4nccn4C3)CCCC2)cc1 (centres undefined)    47.5
CC(C)c1nc(C2CCCN2CCS(=O)(=O)c2ccccc2)no1 (centres undefined)    -158

Query: State its INHIBITION: "c1ccc(CC2CCN(Cc3ccnc(-c4cccnc4)n3)CC2)cc1"
Reply: -20

Query: State its INHIBITION: "COc1ccc(S(=O)(=O)N2C[C@@H]3CN(C)CCO[C@@H]3C2)cc1"
Reply: 60.2

Query: State its INHIBITION: "O=C(CCc1ccccc1)NCC1CCN(Cc2ccsc2)CC1"
Reply: 19.8

Query: State its INHIBITION: "NC(=O)Cn1ccc(O)c(Cc2ccc(Cl)cc2Cl)c1=O"
Reply: -144

Query: State its INHIBITION: COCc1ccccc1CNC(=O)CN1CCCC1c1noc(C)n1 (centres undefined)
Reply: 51.2

Query: State its INHIBITION: CN1CCCC1CNC(=O)CCOc1ccc(Cl)cc1 (centres undefined)
Reply: 67.9

Query: State its INHIBITION: "NC(=O)c1nc2c(s1)CCN(C(=O)Nc1cccc(Cl)c1)CC2"
Reply: -91.8

Query: State its INHIBITION: COc1ccc2c(c1)OCC(CNc1cc(N)nc(SC)n1)C2 (centres undefined)
Reply: -50.7

Query: State its INHIBITION: "CN(C)C[C@H]1OC[C@@H]2CCN(S(=O)(=O)c3ccccc3)C[C@@H]21"
Reply: -3.11

Query: State its INHIBITION: "Cn1nc(C(=O)NCc2cccnc2)c2c1CCS(=O)(=O)C2"
Reply: -148

Origin of values: ChEMBL document CHEMBL4513216
